target: human wild-type (WT)-pendrin (Homo sapiens, UniProt O43511); construct: expressed in transfected cells; experiment: Pendrin Cl−/I− exchange inhibitory activity, YFP fluorescence in CHO-K1 cells; type: cell-based; conditions: CHO-K1; compound concentration 10 μM
Sequence (O43511 whole entry): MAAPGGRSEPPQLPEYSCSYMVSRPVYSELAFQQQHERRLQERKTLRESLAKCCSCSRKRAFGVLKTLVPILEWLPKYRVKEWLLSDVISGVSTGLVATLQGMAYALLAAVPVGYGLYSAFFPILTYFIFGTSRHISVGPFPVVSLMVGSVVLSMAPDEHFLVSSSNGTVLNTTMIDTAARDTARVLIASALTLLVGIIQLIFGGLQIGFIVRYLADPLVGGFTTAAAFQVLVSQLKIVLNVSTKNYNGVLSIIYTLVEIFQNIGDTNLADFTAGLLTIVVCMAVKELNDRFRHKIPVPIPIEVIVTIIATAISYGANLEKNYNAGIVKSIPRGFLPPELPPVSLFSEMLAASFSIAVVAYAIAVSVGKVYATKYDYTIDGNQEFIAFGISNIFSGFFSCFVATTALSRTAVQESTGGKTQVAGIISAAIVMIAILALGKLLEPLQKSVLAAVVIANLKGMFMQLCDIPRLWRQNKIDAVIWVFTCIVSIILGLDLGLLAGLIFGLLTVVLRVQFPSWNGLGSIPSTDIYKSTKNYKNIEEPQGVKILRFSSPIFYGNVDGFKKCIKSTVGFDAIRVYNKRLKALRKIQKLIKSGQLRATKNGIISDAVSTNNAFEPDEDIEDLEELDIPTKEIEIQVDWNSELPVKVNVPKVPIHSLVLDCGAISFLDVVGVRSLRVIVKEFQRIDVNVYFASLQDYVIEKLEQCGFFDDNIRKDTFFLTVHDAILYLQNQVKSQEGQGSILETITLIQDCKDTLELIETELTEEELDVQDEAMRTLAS
Attribute measured: inhibition at 10 µM (%)
Numbers only, in %.

Give one value of inhibition at 10 µM per listed compound.
1. O=C(O)c1[nH]c2ccc(Cl)cc2c1CC(=O)N1CCN(c2ccccc2Br)CC1
2. CC(C)(C)c1ccc(N2CCN(C(=O)Cc3c(C(=O)O)[nH]c4ccc(Cl)cc34)CC2)cc1
3. O=C(O)c1[nH]c2ccc(Cl)cc2c1CC(=O)N1CCN(c2cc(Cl)c(Cl)c(Cl)c2)CC1
4. Cc1ccc(N2CCN(C(=O)Cc3c(C(=O)O)[nH]c4ccc(Cl)cc34)CC2)cc1
5. Cc1ccc2[nH]c(C(=O)O)c(CC(=O)N3CCN(c4ccc(C(C)(C)C)cc4)CC3)c2c1
6. Cc1c(Cl)cccc1N1CCN(C(=O)Cc2c(C(=O)O)[nH]c3ccc(Cl)cc23)CC1
7. O=C(O)c1[nH]c2ccc(Cl)cc2c1CC(=O)N1CCN(c2ccc(Cl)cc2)CC1

[59.7, 70.8, 82.6, 36.8, 45.4, 87.5, 40.3]

Give one value of inhibition at 10 µM per listed compound.
1. O=C(O)c1[nH]c2ccc(Cl)cc2c1CC(=O)N1CCN(c2ccc(F)cc2Cl)CC1
2. O=C(O)c1[nH]c2ccc(Cl)cc2c1CC(=O)N1CCN(c2ccc(Cl)cc2Cl)CC1
3. O=C(O)c1[nH]c2ccc(Cl)cc2c1CC(=O)N1CCN(c2cccc(Br)c2)CC1

69.1
89.3
35.1

Give one value of inhibition at 10 µM per listed compound.
1. O=C(O)c1[nH]c2ccc(Cl)cc2c1CC(=O)N1CCN(c2ccccc2C(F)(F)F)CC1
2. Cc1cc(C)c2[nH]c(C(=O)O)c(CC(=O)N3CCN(c4c(C)cccc4C)CC3)c2c1
3. Cc1cccc(Cl)c1N1CCN(C(=O)Cc2c(C(=O)O)[nH]c3ccc(Cl)cc23)CC1

[71.4, 40.8, 97.6]

Give one value of inhibition at 10 µM per listed compound.
1. Cc1ccc2[nH]c(C(=O)O)c(CC(=O)N3CCN(c4c(C)cccc4C)CC3)c2c1
2. Cc1cccc(Cl)c1N1CCN(C(=O)Cc2c(C(=O)O)[nH]c3ccc(F)cc23)CC1

1. 82.3
2. 89.6

Attribution: patent US20240287042A1
